Tested on: Escherichia coli
Assay Explanation: Antibacterial activity against Escherichia coli 1411 assessed as growth inhibition by broth microdilution method
Type: functional
Outcome Measure: MIC (µg/mL)

# Molecule, Target Entity, Outcome Measure, Modifier, Numeric Result
rows = [
    ("Cl.N#Cc1c(NC(=O)c2cc(OCCNC(=N)N)ccc2Cl)sc2c1CCCC2", "Escherichia coli", "MIC", "=", 16),
    ("N#Cc1c(NC(=O)c2cc(OCCNC(=O)C(F)(F)F)ccc2Cl)sc2c1CCN(Cc1ccc(-n3cnnn3)cc1)C2", "Escherichia coli", "MIC", ">", 256),
    ("COC(=O)c1ccc(CN2CCc3c(sc(NC(=O)c4cc(OCCN)ccc4Cl)c3C#N)C2)cc1", "Escherichia coli", "MIC", ">", 256),
    ("Cl.N#Cc1c(NC(=O)c2cc(S(=O)(=O)NCCN)c(Cl)cc2Cl)sc2c1CCCC2", "Escherichia coli", "MIC", ">", 256),
    ("COC(=O)c1ccc(CN2CCc3c(sc(NC(=O)c4cc(OCCNC(=N)N)ccc4Cl)c3C#N)C2)cc1.Cl", "Escherichia coli", "MIC", "=", 64),
    ("Cl.N#Cc1ccc(CN2CCc3c(sc(NC(=O)c4cc(OCCNC(=N)N)ccc4Cl)c3C#N)C2)cc1", "Escherichia coli", "MIC", "=", 128),
    ("N#Cc1c(NC(=O)c2cc(OCCN)ccc2Cl)sc2c1CCC(c1ccc(O)cc1)C2 (centres undefined)", "Escherichia coli", "MIC", ">", 256),
    ("N#Cc1c(NC(=O)c2cc(OCCNC(=O)C(F)(F)F)ccc2Cl)sc2c1CCNC2.O=C(O)C(F)(F)F", "Escherichia coli", "MIC", ">", 256),
    ("Cl.N#Cc1c(NC(=O)c2cccc(OCCNC(=N)N)c2)sc2c1CCCC2", "Escherichia coli", "MIC", "=", 64),
]

---

Form field: Activity (one value per entry).
Tested on: Escherichia coli
Assay Explanation: Inhibition of […] MurF ligase using D-Ala-D-Ala as substrate assessed as residual activity at 100 uM after 15 mins by malachite green assay

# Substance Smiles, Target Entity, Activity, %
rows = [
    ("N#Cc1c(NC(=O)c2cccc(OCCN)c2)sc2c1CCCC2", "Escherichia coli", 93),
    ("N#Cc1ccc(COc2ccc(Cl)c(C(=O)Nc3sc4c(c3C#N)CCCC4)c2)cc1", "Escherichia coli", 97),
    ("N#Cc1c(NC(=O)c2cccc(OCn3cccn3)c2)sc2c1CCCC2", "Escherichia coli", 85),
    ("N#Cc1c(NC(=O)c2cccc(OCC3CCCC3)c2)sc2c1CCCC2", "Escherichia coli", 99),
    ("N#Cc1c(NC(=O)c2cc(OCc3ccccc3)ccc2Cl)sc2c1CCCC2", "Escherichia coli", 82),
    ("N#Cc1c(NC(=O)c2cccc(OCc3ccc(Cl)cc3)c2)sc2c1CCCC2", "Escherichia coli", 97),
]

---

Form field: MIC (one value per entry).
Test system: Escherichia coli
Assay Explanation: Antibacterial activity against Escherichia coli AB734 assessed as growth inhibition by broth microdilution method in presence of polymyxin B nonapeptide
Type: functional
Outcome Measure: MIC (µg/mL)

# Compound, Outcome Measure, Modifier, Numeric Result
data = [
    ("N#Cc1c(NC(=O)c2cc(OCCNC(=O)C(F)(F)F)ccc2Cl)sc2c1CCNC2.O=C(O)C(F)(F)F", "MIC", ">", 256),
    ("Cl.N#Cc1c(NC(=O)c2cccc(OCCNC(=N)N)c2)sc2c1CCCC2", "MIC", ">", 256),
    ("Cl.N#Cc1c(NC(=O)c2cc(OCCNC(=N)N)ccc2Cl)sc2c1CCN(Cc1cccc(O)c1)C2", "MIC", "=", 64),
    ("Cl.N#Cc1c(NC(=O)c2cc(OCCNC(=N)N)ccc2Cl)sc2c1CCCC2", "MIC", "=", 8),
    ("Cl.N#Cc1c(NC(=O)c2cc(OCCCNC(=N)N)ccc2Cl)sc2c1CCCC2", "MIC", "=", 32),
    ("COc1ccc(CN2CCc3c(sc(NC(=O)c4cc(OCCNC(=N)N)ccc4Cl)c3C#N)C2)cc1.Cl", "MIC", "=", 32),
    ("COC(=O)c1ccc(CN2CCc3c(sc(NC(=O)c4cc(OCCN)ccc4Cl)c3C#N)C2)cc1", "MIC", "=", 64),
    ("N#Cc1ccc(CN2CCc3c(sc(NC(=O)c4cc(OCCN)ccc4Cl)c3C#N)C2)cc1", "MIC", "=", 64),
    ("N#Cc1c(NC(=O)c2cc(OCCNC(=O)C(F)(F)F)ccc2Cl)sc2c1CCN(Cc1cccc(O)c1)C2", "MIC", ">", 256),
    ("Cl.N#Cc1c(NC(=O)c2cc(S(=O)(=O)NCCN)c(Cl)cc2Cl)sc2c1CCCC2", "MIC", "=", 128),
    ("COC(=O)c1ccc(CN2CCc3c(sc(NC(=O)c4cc(OCCNC(=O)C(F)(F)F)ccc4Cl)c3C#N)C2)cc1", "MIC", ">", 256),
    ("N#Cc1c(NC(=O)c2cc(OCCNC(=O)C(F)(F)F)ccc2Cl)sc2c1CCN(Cc1ccccc1)C2", "MIC", ">", 256),
    ("N#Cc1c(NC(=O)c2cc(OCCN)ccc2Cl)sc2c1CCC(c1ccc(O)cc1)C2 (centres undefined)", "MIC", "=", 16),
    ("Cl.N#Cc1c(NC(=O)c2cc(OCCN)ccc2Cl)sc2c1CCCC2", "MIC", "=", 32),
    ("N#Cc1c(NC(=O)c2cc(OCCN)ccc2Cl)sc2c1CCN(Cc1ccccc1)C2", "MIC", "=", 32),
    ("N#Cc1c(NC(=O)c2cc(OCCN)ccc2Cl)sc2c1CCN(Cc1ccc(-n3cnnn3)cc1)C2", "MIC", ">", 256),
    ("CC(C)(C)OC(=O)N1CCc2c(sc(NC(=O)c3cc(OCCNC(=O)C(F)(F)F)ccc3Cl)c2C#N)C1", "MIC", ">", 256),
    ("Cl.N#Cc1c(NC(=O)c2cc(OCCNC(=N)N)ccc2Cl)sc2c1CCN(Cc1ccc(O)cc1)C2", "MIC", "=", 16),
    ("N#Cc1ccc(CN2CCc3c(sc(NC(=O)c4cc(OCCNC(=O)C(F)(F)F)ccc4Cl)c3C#N)C2)cc1", "MIC", ">", 256),
    ("COc1ccc(CN2CCc3c(sc(NC(=O)c4cc(OCCNC(=O)C(F)(F)F)ccc4Cl)c3C#N)C2)cc1", "MIC", ">", 256),
    ("N#Cc1c(NC(=O)c2cc(OCCNC(=O)C(F)(F)F)ccc2Cl)sc2c1CCN(Cc1ccc(-n3cnnn3)cc1)C2", "MIC", ">", 256),
    ("N#Cc1c(NC(=O)c2cc(OCCN)ccc2Cl)sc2c1CCN(Cc1cccc(O)c1)C2", "MIC", "=", 64),
    ("N#Cc1c(NC(=O)c2cc(OCCCN)ccc2Cl)sc2c1CCCC2", "MIC", "=", 32),
    ("COc1ccc(CN2CCc3c(sc(NC(=O)c4cc(OCCN)ccc4Cl)c3C#N)C2)cc1", "MIC", "=", 64),
    ("N#Cc1c(NC(=O)c2cc(OCCN)ccc2Cl)sc2c1CCNC2", "MIC", ">", 256),
    ("N#Cc1c(NC(=O)c2cc(OCCN)ccc2Cl)sc2c1CCN(Cc1ccc(C(=O)O)cc1)C2", "MIC", ">", 256),
    ("COC(=O)c1ccc(CN2CCc3c(sc(NC(=O)c4cc(OCCNC(=N)N)ccc4Cl)c3C#N)C2)cc1.Cl", "MIC", "=", 32),
    ("Cl.N#Cc1c(NC(=O)c2cc(OCCNC(=N)N)ccc2Cl)sc2c1CCN(Cc1ccccc1)C2", "MIC", "=", 16),
    ("Cl.N#Cc1ccc(CN2CCc3c(sc(NC(=O)c4cc(OCCNC(=N)N)ccc4Cl)c3C#N)C2)cc1", "MIC", "=", 32),
]

---

Form field: pIC50 (one value per entry).
Target Entity: UniProtKB Q9ZHC3
Sequence (Q9ZHC3 whole entry): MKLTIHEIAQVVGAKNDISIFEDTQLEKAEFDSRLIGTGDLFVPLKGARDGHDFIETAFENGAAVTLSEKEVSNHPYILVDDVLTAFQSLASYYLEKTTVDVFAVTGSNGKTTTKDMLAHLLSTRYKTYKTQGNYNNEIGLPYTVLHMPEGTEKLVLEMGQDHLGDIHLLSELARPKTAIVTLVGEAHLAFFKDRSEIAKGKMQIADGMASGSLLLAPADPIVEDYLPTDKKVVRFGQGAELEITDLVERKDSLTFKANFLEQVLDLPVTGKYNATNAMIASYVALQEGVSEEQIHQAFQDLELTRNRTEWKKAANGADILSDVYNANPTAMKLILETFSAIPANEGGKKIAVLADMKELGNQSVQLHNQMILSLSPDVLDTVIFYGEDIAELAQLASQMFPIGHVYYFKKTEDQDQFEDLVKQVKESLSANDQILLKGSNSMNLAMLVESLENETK
pIC50: −log10 of the molar value.

# Compound, Target Entity, pIC50
measured = [
    ("Cl.N#Cc1c(NC(=O)c2cc(S(=O)(=O)NCCN)c(Cl)cc2Cl)sc2c1CCCC2", "UniProtKB Q9ZHC3", 3.66),
    ("N#Cc1c(NC(=O)c2cc(OCCNC(=O)C(F)(F)F)ccc2Cl)sc2c1CCN(Cc1ccc(-n3cnnn3)cc1)C2", "UniProtKB Q9ZHC3", 3.99),
    ("Cl.N#Cc1c(NC(=O)c2cc(OCCNC(=N)N)ccc2Cl)sc2c1CCN(Cc1cccc(O)c1)C2", "UniProtKB Q9ZHC3", 3.93),
    ("COc1ccc(CN2CCc3c(sc(NC(=O)c4cc(OCCN)ccc4Cl)c3C#N)C2)cc1", "UniProtKB Q9ZHC3", 3.90),
    ("COc1ccc(CN2CCc3c(sc(NC(=O)c4cc(OCCNC(=N)N)ccc4Cl)c3C#N)C2)cc1.Cl", "UniProtKB Q9ZHC3", 4.21),
    ("N#Cc1c(NC(=O)c2cccc(OCn3cc(Cl)cn3)c2)sc2c1CCC2", "UniProtKB Q9ZHC3", 3.90),
    ("N#Cc1c(NC(=O)c2cc(OCCN)ccc2Cl)sc2c1CCN(Cc1ccccc1)C2", "UniProtKB Q9ZHC3", 4.29),
    ("Cl.N#Cc1c(NC(=O)c2cc(OCCNC(=N)N)ccc2Cl)sc2c1CCCC2", "UniProtKB Q9ZHC3", 4.12),
    ("N#Cc1c(NC(=O)c2cc(OCCN)ccc2Cl)sc2c1CCC(c1ccc(O)cc1)C2 (centres undefined)", "UniProtKB Q9ZHC3", 4.24),
    ("N#Cc1c(NC(=O)c2cc(OCCN)ccc2Cl)sc2c1CCN(Cc1cccc(O)c1)C2", "UniProtKB Q9ZHC3", 3.92),
    ("COc1ccc(CN2CCc3c(sc(NC(=O)c4cc(OCCNC(=O)C(F)(F)F)ccc4Cl)c3C#N)C2)cc1", "UniProtKB Q9ZHC3", 3.81),
    ("N#Cc1c(NC(=O)c2cc(OCCCN)ccc2Cl)sc2c1CCCC2", "UniProtKB Q9ZHC3", 3.89),
    ("Cl.N#Cc1c(NC(=O)c2cc(OCCNC(=N)N)ccc2Cl)sc2c1CCN(Cc1ccc(O)cc1)C2", "UniProtKB Q9ZHC3", 4.70),
    ("N#Cc1ccc(CN2CCc3c(sc(NC(=O)c4cc(OCCN)ccc4Cl)c3C#N)C2)cc1", "UniProtKB Q9ZHC3", 3.97),
    ("Cl.N#Cc1c(NC(=O)c2cccc(OCCNC(=N)N)c2)sc2c1CCCC2", "UniProtKB Q9ZHC3", 3.78),
    ("Cl.N#Cc1c(NC(=O)c2cc(OCCN)ccc2Cl)sc2c1CCCC2", "UniProtKB Q9ZHC3", 3.77),
    ("Cl.N#Cc1c(NC(=O)c2cc(OCCCNC(=N)N)ccc2Cl)sc2c1CCCC2", "UniProtKB Q9ZHC3", 4.11),
    ("N#Cc1c(NC(=O)c2cc(OCCN)ccc2Cl)sc2c1CCN(Cc1ccc(-n3cnnn3)cc1)C2", "UniProtKB Q9ZHC3", 3.34),
    ("Cl.N#Cc1ccc(CN2CCc3c(sc(NC(=O)c4cc(OCCNC(=N)N)ccc4Cl)c3C#N)C2)cc1", "UniProtKB Q9ZHC3", 4.21),
]

Values compiled from ChEMBL document CHEMBL3112403.
